target: Recombinant human HDAC3/SMRT heterodimer (Homo sapiens); construct: FLAG (C); made in house; test: Human HDAC enzyme inhibitor Fluor-de-Lys assay, HDAC3/SMRT; format: biochemical
Sequence (O15379 whole entry): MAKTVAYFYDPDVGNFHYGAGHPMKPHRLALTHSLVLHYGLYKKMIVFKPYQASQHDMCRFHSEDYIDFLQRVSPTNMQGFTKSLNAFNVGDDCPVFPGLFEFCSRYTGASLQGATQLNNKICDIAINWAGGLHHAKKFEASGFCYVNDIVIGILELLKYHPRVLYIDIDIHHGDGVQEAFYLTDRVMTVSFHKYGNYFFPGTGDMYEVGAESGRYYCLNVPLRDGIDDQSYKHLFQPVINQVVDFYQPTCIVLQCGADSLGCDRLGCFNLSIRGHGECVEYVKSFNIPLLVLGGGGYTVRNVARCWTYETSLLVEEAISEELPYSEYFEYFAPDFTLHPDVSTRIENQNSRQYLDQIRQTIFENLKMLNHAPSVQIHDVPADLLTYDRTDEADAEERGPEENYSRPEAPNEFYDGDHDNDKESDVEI
Sequence (Q9Y618 1-899 partner limits assumed): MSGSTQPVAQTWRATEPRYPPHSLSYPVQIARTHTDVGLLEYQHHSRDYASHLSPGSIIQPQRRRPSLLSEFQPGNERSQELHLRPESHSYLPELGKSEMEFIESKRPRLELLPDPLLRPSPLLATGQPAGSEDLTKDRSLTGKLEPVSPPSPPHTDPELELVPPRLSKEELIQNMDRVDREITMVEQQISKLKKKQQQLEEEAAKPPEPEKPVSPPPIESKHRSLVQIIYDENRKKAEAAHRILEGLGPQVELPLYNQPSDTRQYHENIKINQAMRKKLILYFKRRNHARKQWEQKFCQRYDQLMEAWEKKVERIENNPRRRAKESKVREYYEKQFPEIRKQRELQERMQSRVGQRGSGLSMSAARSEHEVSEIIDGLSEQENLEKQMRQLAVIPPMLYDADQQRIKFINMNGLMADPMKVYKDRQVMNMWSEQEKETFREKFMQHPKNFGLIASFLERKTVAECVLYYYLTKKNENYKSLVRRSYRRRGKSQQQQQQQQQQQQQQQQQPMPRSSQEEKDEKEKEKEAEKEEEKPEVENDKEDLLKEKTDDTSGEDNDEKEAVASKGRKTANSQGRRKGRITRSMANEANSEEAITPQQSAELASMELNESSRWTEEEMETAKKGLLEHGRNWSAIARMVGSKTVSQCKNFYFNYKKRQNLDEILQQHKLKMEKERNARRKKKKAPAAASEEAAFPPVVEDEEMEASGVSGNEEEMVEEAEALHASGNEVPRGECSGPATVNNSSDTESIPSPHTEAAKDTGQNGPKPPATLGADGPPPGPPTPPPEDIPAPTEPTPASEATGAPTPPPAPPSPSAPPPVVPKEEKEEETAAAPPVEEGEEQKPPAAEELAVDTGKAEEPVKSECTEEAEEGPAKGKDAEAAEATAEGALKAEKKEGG
Quantity Measured: IC50 (nM)
# number only, unit nM dropped from output

CCC(=O)CCCCC[C@H](NC(=O)C1=NOC2(CCN(C)CC2)C1)c1ncc(-c2cc3ccncc3nc2OC)o1    13.5
CN1CCC2(CC1)C[C@@H]2C(=O)N[C@@H](CCCCCC(=O)CC1CC1)c1ncc(-c2ccc(F)cc2)[nH]1    16.3
CCC(=O)CCCCC[C@H](NC(=O)[C@H]1CC12CCN(C)CC2)c1ncc(-c2ccc3cnc(OC)cc3c2)[nH]1    1.42

Exercise: Recorded IC50 for CCC(=O)CCCCC[C@H](NC(=O)[C@H]1CC12CCN(C)CC2)c1ncc(-c2ccc3nc(C4CC4)ccc3c2)o1 , please?
Solution: 1.16

Reference source for all entries: patent US12590099B2
